Each item that follows carries a reported radioactive counts recorded in twenty minutes.
target: HIV-1LAI envelope gp120 (Human immunodeficiency virus type 1 group M subtype B); format: binding; details: CXCR4 18-mer scan; background subtracted, empty control 0
Write it as a number; the unit counts goes unstated.

SLKILSKGKRGGHSSVST [CXCR4 segment 325-342]
285

INPUT: What is its radioactive counts recorded in twenty minutes for HIV-1LAI envelope gp120 (Human immunodeficiency virus type 1 group M subtype B)? Entry: VVFQFQHIMVGLILPGIV
OUTPUT: 589

INPUT: What is its radioactive counts recorded in twenty minutes for HIV-1LAI envelope gp120 (Human immunodeficiency virus type 1 group M subtype B)? Entry: ILPGIVILSCYCIIISKL [CXCR4 segment 209-226]
OUTPUT: 192

INPUT: What is its radioactive counts recorded in twenty minutes for HIV-1LAI envelope gp120 (Human immunodeficiency virus type 1 group M subtype B)? Entry: QRPRKLLAEKVVYVGVWI
OUTPUT: 127

INPUT: What is its radioactive counts recorded in twenty minutes for HIV-1LAI envelope gp120 (Human immunodeficiency virus type 1 group M subtype B)? Entry: YSIIFLTGIVGNGLVILV [CXCR4 segment 45-62]
OUTPUT: 123

Source: patent US20030068615A1
